protocol-text: Solubility experiment (thermodynamic solubility at 37° C.)
Type: physicochemical
study-conditions: FaSSIF (Fasted State Simulated Intestinal Fluid), 37 °C, fassif, thermodynamic from solid, 24 hours
property-label: solubility at 24 h (µg/mL)
Write the value in µg/mL as a bare number.

Challenge: Name the recorded solubility at 24 h of the compound listed here: C[C@@H]1C[C@H](C(=O)Cn2ccc(C#N)n2)[C@@]2(C)CC[C@H]3[C@@H](CC[C@@H]4C[C@](C)(O)CC[C@@H]43)[C@H]12 [Crystal form I]
Response given: 3.26

---

Readings of Number of clonic seizures Mean for the listed compounds
System: CD-1 mice
protocol-text: PTZ-induced epilepsy model in mice
Assay type: in vivo
study-conditions: 3 mpk p.o., PTZ 120 mg/kg s.c., 30 min observation
Write no unit; give the number alone.

>  <cpd-smiles>
C[C@@H]1C[C@H](C(=O)Cn2nccn2)[C@@]2(C)CC[C@H]3[C@@H](CC[C@@H]4C[C@](C)(O)CC[C@@H]43)[C@H]12

>  <Number of clonic seizures Mean>
1.9

$$$$

Challenge: Please give measured Number of clonic seizures Mean of the following entry: `C[C@@]1(O)CC[C@H]2[C@H](CC[C@@H]3[C@@H]2CC[C@@]2(C)[C@H]3[C@@H]3C[C@@H]3[C@@H]2C(=O)Cn2ccc(C#N)n2)C1`
Response given: 1.3

Challenge: Give the value of Number of clonic seizures Mean reported for the following: `Cc1nnn(CC(=O)[C@H]2C[C@@H](C3CC3)[C@H]3[C@@H]4CC[C@@H]5C[C@](C)(O)CC[C@@H]5[C@H]4CC[C@@]32C)n1`
Response given: 1.8

Challenge: Provide one value: measured Number of clonic seizures Mean of `C[C@@H]1C[C@H](C(=O)Cn2ccc(C#N)n2)[C@@]2(C)CC[C@H]3[C@@H](CC[C@@H]4C[C@](C)(O)CC[C@@H]43)[C@H]12`
Response given: 0.5
